test_system: Estrogen receptor (Homo sapiens, UniProt P03372)
Sequence (P03372 whole entry): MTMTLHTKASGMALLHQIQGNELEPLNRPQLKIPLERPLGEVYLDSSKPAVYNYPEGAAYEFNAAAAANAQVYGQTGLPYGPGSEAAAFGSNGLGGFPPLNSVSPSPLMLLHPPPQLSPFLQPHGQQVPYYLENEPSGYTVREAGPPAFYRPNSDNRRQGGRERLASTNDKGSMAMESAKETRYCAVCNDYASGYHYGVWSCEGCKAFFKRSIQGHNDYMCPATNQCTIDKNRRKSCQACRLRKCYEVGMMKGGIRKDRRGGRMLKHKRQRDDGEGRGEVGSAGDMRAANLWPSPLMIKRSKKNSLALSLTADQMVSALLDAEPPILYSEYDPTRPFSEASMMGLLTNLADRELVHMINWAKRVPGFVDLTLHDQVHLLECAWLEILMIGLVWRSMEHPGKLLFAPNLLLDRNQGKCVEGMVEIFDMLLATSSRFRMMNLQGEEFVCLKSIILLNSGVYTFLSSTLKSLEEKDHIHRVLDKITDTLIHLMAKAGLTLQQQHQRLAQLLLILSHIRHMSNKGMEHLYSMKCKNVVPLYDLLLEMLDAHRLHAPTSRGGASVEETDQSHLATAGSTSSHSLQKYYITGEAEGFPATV
measurement_description: Antagonist activity at human ERalpha expressed in human MCF7 cells at 10 uM by luciferase reporter gene assay
Assay type: functional, cell-based
measure: pIC50
Reminder that pIC50 is minus the log10 of a molar concentration.

Q: May I ask what pIC50 has been recorded for Oc1ccc(-c2nc3ccccc3n2Cc2ccc(OCCN3CCCCC3)cc2)cc1 ?
Ans: 5.29
